Recorded viability, T/C values for a group of compounds are listed next.
System: 327498-153-R-J2-PDC complex spheroid growth, % test/control
run.description: Anticancer human tumor 327498-153-R-J2-PDC patient-derived uterine carcinosarcoma cell line growth inhibition [Asc]
setup.conditions: second compound 0.1 µM; first compound 0.01 µM; stronger effect = lower value

Look over these answered cases.
compound: COc1c(OCCCN2CCOCC2)ccc2c3n(c(=NC(=O)c4cnc(N)nc4)nc12)CCN3 + CNC(C)C(=O)NC1CN(S(=O)(=O)c2cccc(S(=O)(=O)N3CCC4CCC(C(=O)NC(c5ccccc5)c5ccccc5)N4C(=O)C(NC(=O)C(C)NC)C3)c2)CCC2CCC(C(=O)NC(c3ccccc3)c3ccccc3)N2C1=O
value: 89.5%
--
compound: CCN1CCN(Cc2ccc(Nc3ncc(F)c(-c4cc(F)c5nc(C)n(C(C)C)c5c4)n3)nc2)CC1 + Cc1c(S(C)(=O)=O)c(-c2cc(F)cc(N3CCN(c4ccc(NS(=O)(=O)c5ccc(NC(CCN6CCC(C(=O)OCCCP(=O)(O)O)CC6)CSc6ccccc6)c(S(=O)(=O)C(F)(F)F)c5)cc4)CC3)c2)c(-c2ccc(Cl)cc2)n1C(C)C
value: 94.9%

// switching to the query compound
Q. Recall the recorded viability, T/C for O=C(c1ccc(F)c(F)c1Nc1ccc(I)cc1F)N1CC(O)([C@@H]2CCCCN2)C1 + CNC(C)C(=O)NC1CN(S(=O)(=O)c2cccc(S(=O)(=O)N3CCC4CCC(C(=O)NC(c5ccccc5)c5ccccc5)N4C(=O)C(NC(=O)C(C)NC)C3)c2)CCC2CCC(C(=O)NC(c3ccccc3)c3ccccc3)N2C1=O with 327498-153-R-J2-PDC complex spheroid growth, % test/control and state it.
A. 88%

---

Recorded viability, T/C values for a group of molecules are listed next.
Test system: 327498-153-R-J2-PDC complex spheroid growth, % test/control
run.description: Anticancer human tumor 327498-153-R-J2-PDC cell line growth inhibition [Asc];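 also: spheroids exposed to compound for 7 days after 3 days of growth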;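 as to viability, T/C: 100% = DMSO vehicle control wells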
setup.conditions: second compound 0.316 µM; first compound 0.001 µM; stronger effect = lower value
// units = %; emit number, no label

Look over these answered cases.
molecule: Cn1ncnc1[C@H]1c2n[nH]c(=O)c3cc(F)cc(c23)N[C@@H]1c1ccc(F)cc1 + CNC(C)C(=O)NC1CN(S(=O)(=O)c2cccc(S(=O)(=O)N3CCC4CCC(C(=O)NC(c5ccccc5)c5ccccc5)N4C(=O)C(NC(=O)C(C)NC)C3)c2)CCC2CCC(C(=O)NC(c3ccccc3)c3ccccc3)N2C1=O
measurement.name: viability, T/C
value: 112

molecule: Cn1ncnc1[C@H]1c2n[nH]c(=O)c3cc(F)cc(c23)N[C@@H]1c1ccc(F)cc1 + Cc1c(S(C)(=O)=O)c(-c2cc(F)cc(N3CCN(c4ccc(NS(=O)(=O)c5ccc(NC(CCN6CCC(C(=O)OCCCP(=O)(O)O)CC6)CSc6ccccc6)c(S(=O)(=O)C(F)(F)F)c5)cc4)CC3)c2)c(-c2ccc(Cl)cc2)n1C(C)C
measurement.name: viability, T/C
value: 84.5

molecule: NC1CCC(NC2CC2c2ccccc2)CC1 (centres undefined) + Cc1c(S(C)(=O)=O)c(-c2cc(F)cc(N3CCN(c4ccc(NS(=O)(=O)c5ccc(NC(CCN6CCC(C(=O)OCCCP(=O)(O)O)CC6)CSc6ccccc6)c(S(=O)(=O)C(F)(F)F)c5)cc4)CC3)c2)c(-c2ccc(Cl)cc2)n1C(C)C
measurement.name: viability, T/C
value: 99.5

Q. # input molecule: NC1CCC(NC2CC2c2ccccc2)CC1 (centres undefined) + CNC(C)C(=O)NC1CN(S(=O)(=O)c2cccc(S(=O)(=O)N3CCC4CCC(C(=O)NC(c5ccccc5)c5ccccc5)N4C(=O)C(NC(=O)C(C)NC)C3)c2)CCC2CCC(C(=O)NC(c3ccccc3)c3ccccc3)N2C1=O ; wanted: its viability, T/C
A. 107

---

Test system: 327498-153-R-J2-PDC complex spheroid growth, % test/control
run.description: Anticancer human tumor 327498-153-R-J2-PDC cell line growth inhibition [Asc];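 also: spheroids exposed to compound for 7 days after 3 days of growth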
setup.conditions: curve of first compound; second compound 0.316 µM
Recorded IC50 values for a group of compounds are listed next.
// units = µM; emit number, no label

compound: O=C(c1cc(Cc2n[nH]c(=O)c3ccccc23)ccc1F)N1CCN(C(=O)C2CC2)CC1 + Cc1c(S(C)(=O)=O)c(-c2cc(F)cc(N3CCN(c4ccc(NS(=O)(=O)c5ccc(NC(CCN6CCC(C(=O)OCCCP(=O)(O)O)CC6)CSc6ccccc6)c(S(=O)(=O)C(F)(F)F)c5)cc4)CC3)c2)c(-c2ccc(Cl)cc2)n1C(C)C
tested.on: 327498-153-R-J2-PDC complex spheroid growth, % test/control
IC50 / µM: 2.53

// switching to the query compound
Q. # input compound: O=C(c1ccc(F)c(F)c1Nc1ccc(I)cc1F)N1CC(O)([C@@H]2CCCCN2)C1 + Cc1c(S(C)(=O)=O)c(-c2cc(F)cc(N3CCN(c4ccc(NS(=O)(=O)c5ccc(NC(CCN6CCC(C(=O)OCCCP(=O)(O)O)CC6)CSc6ccccc6)c(S(=O)(=O)C(F)(F)F)c5)cc4)CC3)c2)c(-c2ccc(Cl)cc2)n1C(C)C ; wanted: its IC50
A. 0.215

---

Test system: 327498-153-R-J2-PDC complex spheroid growth, % test/control
run.description: Anticancer human tumor 327498-153-R-J2-PDC cell line growth inhibition [Asc]; active = viability on the fitted dose curve at most 10% of control; inactive = the rest;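 also: spheroids exposed to compound for 7 days after 3 days of growth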
setup.conditions: second compound 0.03 µM; first compound 1 µM
Outcome (select one): true = active, false = inactive

compound: CCN1CCN(Cc2ccc(Nc3ncc(F)c(-c4cc(F)c5nc(C)n(C(C)C)c5c4)n3)nc2)CC1 + CCN1C(C(=O)NC23CCC(C(=O)O)(CC2)CC3)C(c2cccc(Cl)c2F)C2(C(=O)Nc3cc(Cl)ccc32)C12CCCCC2
class.label: false
//
compound: C=C(F)C(=O)N1CCN(c2nc(OCC3CCCN3C)nc3c2CCN(c2cccc4cccc(Cl)c24)C3)CC1CC#N (stereo not drawn) + CCN1C(C(=O)NC23CCC(C(=O)O)(CC2)CC3)C(c2cccc(Cl)c2F)C2(C(=O)Nc3cc(Cl)ccc32)C12CCCCC2
class.label: false
//
compound: C=CC(=O)N1CCN(c2nc(=O)n(-c3c(C)ccnc3C(C)C)c3nc(-c4c(O)cccc4F)c(F)cc23)C(C)C1 (stereo not drawn) + CCN1C(C(=O)NC23CCC(C(=O)O)(CC2)CC3)C(c2cccc(Cl)c2F)C2(C(=O)Nc3cc(Cl)ccc32)C12CCCCC2
class.label: false
//
compound: O=C(c1ccc(F)c(F)c1Nc1ccc(I)cc1F)N1CC(O)([C@@H]2CCCCN2)C1 + CCN1C(C(=O)NC23CCC(C(=O)O)(CC2)CC3)C(c2cccc(Cl)c2F)C2(C(=O)Nc3cc(Cl)ccc32)C12CCCCC2
class.label: false
//
compound: O=C(c1cc(Cc2n[nH]c(=O)c3ccccc23)ccc1F)N1CCN(C(=O)C2CC2)CC1 + CCN1C(C(=O)NC23CCC(C(=O)O)(CC2)CC3)C(c2cccc(Cl)c2F)C2(C(=O)Nc3cc(Cl)ccc32)C12CCCCC2
class.label: false
//
compound: CNC(C)C(=O)NC1CN(S(=O)(=O)c2cccc(S(=O)(=O)N3CCC4CCC(C(=O)NC(c5ccccc5)c5ccccc5)N4C(=O)C(NC(=O)C(C)NC)C3)c2)CCC2CCC(C(=O)NC(c3ccccc3)c3ccccc3)N2C1=O (stereo not drawn) + CCN1C(C(=O)NC23CCC(C(=O)O)(CC2)CC3)C(c2cccc(Cl)c2F)C2(C(=O)Nc3cc(Cl)ccc32)C12CCCCC2
class.label: false
//
compound: C#Cc1c(F)ccc2cc(O)cc(-c3ncc4c(N5CC6CCC(C5)N6)nc(OCC56CCCN5CC(F)C6)nc4c3F)c12 (stereo not drawn) + CCN1C(C(=O)NC23CCC(C(=O)O)(CC2)CC3)C(c2cccc(Cl)c2F)C2(C(=O)Nc3cc(Cl)ccc32)C12CCCCC2
class.label: false

Consider the record given below.
Q. What is the recorded call for this compound in the test? COc1c(OCCCN2CCOCC2)ccc2c3n(c(=NC(=O)c4cnc(N)nc4)nc12)CCN3 + CCN1C(C(=O)NC23CCC(C(=O)O)(CC2)CC3)C(c2cccc(Cl)c2F)C2(C(=O)Nc3cc(Cl)ccc32)C12CCCCC2
A. true

---

System: 327498-153-R-J2-PDC complex spheroid growth, % test/control
run.description: Anticancer human tumor 327498-153-R-J2-PDC cell line growth inhibition [Asc];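 also: spheroids exposed to compound for 7 days after 3 days of growth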
setup.conditions: curve of first compound; second compound 3.16 µM
measurement.name: pIC50
// pIC50 here means minus log10 of the molar concentration (mol/L)

Look over these answered cases.
compound: O=C(c1ccc(F)c(F)c1Nc1ccc(I)cc1F)N1CC(O)([C@@H]2CCCCN2)C1 + Cc1c(S(C)(=O)=O)c(-c2cc(F)cc(N3CCN(c4ccc(NS(=O)(=O)c5ccc(NC(CCN6CCC(C(=O)OCCCP(=O)(O)O)CC6)CSc6ccccc6)c(S(=O)(=O)C(F)(F)F)c5)cc4)CC3)c2)c(-c2ccc(Cl)cc2)n1C(C)C
value: 6.84

compound: NC(=O)C(=Cn1cnc(-c2cc(C(F)(F)F)cc(C(F)(F)F)c2)n1)c1cncnc1 + Cc1c(S(C)(=O)=O)c(-c2cc(F)cc(N3CCN(c4ccc(NS(=O)(=O)c5ccc(NC(CCN6CCC(C(=O)OCCCP(=O)(O)O)CC6)CSc6ccccc6)c(S(=O)(=O)C(F)(F)F)c5)cc4)CC3)c2)c(-c2ccc(Cl)cc2)n1C(C)C
value: 7.52

// switching to the query compound
Q. # input compound: O=C(c1cc(Cc2n[nH]c(=O)c3ccccc23)ccc1F)N1CCN(C(=O)C2CC2)CC1 + Cc1c(S(C)(=O)=O)c(-c2cc(F)cc(N3CCN(c4ccc(NS(=O)(=O)c5ccc(NC(CCN6CCC(C(=O)OCCCP(=O)(O)O)CC6)CSc6ccccc6)c(S(=O)(=O)C(F)(F)F)c5)cc4)CC3)c2)c(-c2ccc(Cl)cc2)n1C(C)C ; wanted: its pIC50
A. 5.60
